Property: Purity Insulin Glargine; scope: individual proteins
Target: pre-pro-insulin glargine
observable: Purity Insulin Glargine (area %)

* trypsin variant SEQ ID NO: 25 (protein) IVGGYTCAANSIPYQVSLNSGSHRCGGSLINSQWVVSAAHCYKSRIQVRLGEHNIDVLEGNEQFINAAKIITHPNFNGNTLDNDIMLIKLSSPATLNSRVATVSLPRSCAAAGTECLISGWGNTKSSGSSYPSLLQCLKAPVLSDSSCKSSYPGQITGNMICVGFLEGGADACQGDSGGPVVCNGQLQGIVSSGYGCAQKNKPGVYTKVCNYVNWIQQTIAAN | 80.4
* trypsin variant SEQ ID NO: 113 (protein) IVGGYTCAANSIPYQVSLNSGSHRCGGSLINSQWVVSAAHCYKPRIQVRLGEHNIHVLEGNEQFINAAKIITHPNFNGNTLDNDIMLIKLSSPATLNSAVATVSLPTSCAAAGTECLISGWGNTASSGSSYPSLLQCLKAPVLSDSSCKSSYPGQITGNMICVGFLEGGADACQGDSGGPVVCNGQLQGIVSSGYGCAQKNKPGVYTKVCNYVNWIQQTIAAN | 86.1
* trypsin variant SEQ ID NO: 100 (protein) IVGGYTCAANSIPYQVSLNSGSHRCGGSLINSQWVVSAAHCYKPRIQVRLGEHNIDVLEGNEQFINAAKIITHPNFNPNTLDNDIMLIKLSSPATLNSHVATVSLPTSCAAAGTECLISGWGNTCSSGSSMPSLLQCLKAPVLSDSSCKSSYPGQITGNMICVGFLEGGADACQGDSGGPVVCNGQLQGIVSSGYGCAQKNKPGVYTKVCNYVNWIQQTIAAN | 80
* trypsin variant SEQ ID NO: 9 (protein) IVGGYTCAANSIPYQVSLNSGSHRCGGSLINSQWVVSAAHCYKSRIQVRLGEHNIDVLEGNEQFINAAKIITHPNFNGNTLDNDIMLIKLSSPATLNSYVATVSLPRSCAAAGTECLISGWGNTKSSGSSYPSLLQCLKAPVLSDSSCKSSYPGQITGNMICVGFLEGGKDACQGDSGGPVVCNGQLQGIVSSGYGCAQKNKPGVYTKVCNYVNWIQQTIAAN | 85.2
* trypsin variant SEQ ID NO: 116 (protein) IVGGYTCAANSIPYQVSLNSGSHRCGGSLINSQWVVSAAHCYKPRIQVRLGEHNIHVLEGNEQFINAAKIITHPNFNGNTLDNDIMLIKLSSPATLNSNVATVSLPTSCAAAGTECLISGWGNTSSSGSSMPSLLQCLKAPVLSDSSCKSSYPGQITGNMICVGFLEGGADACQGDSGGPVVCNGQLQGIVSSGYGCAQKNKPGVYTKVCNYVNWIQQTIAAN | 82.7
* trypsin variant SEQ ID NO: 101 (protein) IVGGYTCAANSIPYQVSLNSGSHRCGGSLINSQWVVSAAHCYKSRIQVRLGEHNIHVLEGNEQFINAAKIITHPNFNPNTLDNDIMLIKLSSPATLNSNVATVSLPTSCAAAGTECLISGWGNTSSSGSSMPSLLQCLKAPVLSDSSCKSSYPGQITGNMICVGFLEGGADACQGDSGGPVVCNGQLQGIVSSGYGCAQKNKPGVYTKVCNYVNWIQQTIAAN | 89.2
* porcine trypsin variant no. 105 (SEQ ID NO: 105) (protein) IVGGYTCAANSIPYQVSLNSGSHRCGGSLINSQWVVSAAHCYKSRIQVRLGEHNIHVLEGNEQFINAAKIITHPNFNPNTLDNDIMLIKLSSPATLNSNVATVSLPTSCAAAGTECLISGWGNTASSGSSYPSLLQCLKAPVLSDSSCKSSYPGQITGNMICVGFLEGGADACQGDSGGPVVCNGQLQGIVSSGYGCAQKNKPGVYTKVCNYVNWIQQTIAAN | 88.9
* trypsin variant SEQ ID NO: 86 (protein) IVGGYTCAANSIPYQVSLNSGSHRCGGSLINSQWVVSAAHCYKPRIQVRLGEHNIDVLEGNEQFINAAKIITHPNFNPNTLDNDIMLIKLSSPATLNSAVATVSLPTSCAAAGTECLISGWGNTSSSGSSMPSLLQCLKAPVLSDSSCKSSYPGQITGNMICVGFLEGGKDACQGDSGGPVVCNGQLQGIVSSGYGCAQKNKPGVYTKVCNYVNWIQQTIAAN | 79.3
* trypsin variant SEQ ID NO: 106 (protein) IVGGYTCAANSIPYQVSLNSGSHRCGGSLINSQWVVSAAHCYKSRIQVRLGEHNIHVLEGNEQFINAAKIITHPNFNPNTLDNDIMLIKLSSPATLNSAVATVSLPTSCAAAGTECLISGWGNTCSSGSSMPSLLQCLKAPVLSDSSCKSSYPGQITGNMICVGFLEGGADACQGDSGGPVVCNGQLQGIVSSGYGCAQKNKPGVYTKVCNYVNWIQQTIAAN | 86.8
* trypsin variant SEQ ID NO: 83 (protein) IVGGYTCAANSIPYQVSLNSGSHRCGGSLINSQWVVSAAHCYKPRIQVRLGEHNIHVLEGNEQFINAAKIITHPNFNPNTLDNDIMLIKLSSPATLNSNVATVSLPTSCAAAGTECLISGWGNTSSSGSSMPSLLQCLKAPVLSDSSCKSSYPGQITGNMICVGFLEGGKDACQGDSGGPVVCNGQLQGIVSSGYGCAQKNKPGVYTKVCNYVNWIQQTIAAN | 89

All values here come from patent US20230303994.
